Tested on: CAMK1D
appliedConditions: concentration: 1 μM, replicates: in singlicate; n = 1;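 further: KINOMEscan kinase panel screen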
measureName: %Inh (%)
Dear colleague, please return just the value in %, with no unit written.

// worked examples, %Inh included
compoundstructurestring=COc1cc2c(cc1OCCN1CCN(C)CC1)ncc1c3ccc(C#N)cc3[nH]c21 unitabbreviation=% number=44
compoundstructurestring=NS(=O)(=O)CCc1cccc(Nc2nccc(-c3c(-c4cccc(NC(=O)c5c(F)cccc5F)c4)nn4ccccc34)n2)c1 unitabbreviation=% number=29

%Inh of "O=C1Cc2cc(Nc3nc(NCc4cccc(S(=O)(=O)C(F)(F)F)c4)ncc3C(F)(F)F)ccc2N1" on CAMK1D?
0

Item: "CCCCCc1nc2c(N)ncnc2n1CCCCC"
0

====

System: CDKL3
appliedConditions: concentration: 1 μM, replicates: in singlicate; n = 1
%Inh: recorded values
Dear colleague, please return just the value in %, with no unit written.

// worked examples, %Inh included
molecule="Nc1nccc(-c2c(-c3ccc(F)cc3)ncn2C2CCN(CC(F)(F)F)CC2)n1 [SB-236560]" assayedsystem=CDKL3 measurename=%Inh unitabbreviation=% number=0
molecule="Cc1nnc(-c2ccc3occ(-c4ccc(C(C)O)cc4)c3c2)o1 (centres unmarked)" assayedsystem=CDKL3 measurename=%Inh unitabbreviation=% number=0
molecule="Cc1ccc(NC(=O)c2ccnc(N3CCN(C)CC3)c2)cc1-c1ccc(C(=O)NCC2CC2)cc1 [GW775604]" assayedsystem=CDKL3 measurename=%Inh unitabbreviation=% number=5
molecule="O=c1cc(N2CCOCC2)nc2n(Cc3cccc(C(F)(F)F)c3)ccn12 [GSK2297543]" assayedsystem=CDKL3 measurename=%Inh unitabbreviation=% number=0
molecule=O=C1Cc2cc(Nc3nc(NCc4cccc(S(=O)(=O)C(F)(F)F)c4)ncc3C(F)(F)F)ccc2N1 assayedsystem=CDKL3 measurename=%Inh unitabbreviation=% number=3
molecule="NS(=O)(=O)c1cccc(-c2ccc3nccc(-c4cccc(S(N)(=O)=O)c4)c3c2)c1 [GW867253]" assayedsystem=CDKL3 measurename=%Inh unitabbreviation=% number=20

%Inh of "Cc1cccc(-c2nc(-c3ccc(S(C)(=O)=O)cc3)sc2-c2ccncc2)c1" on CDKL3?
0

Item: NCCNS(=O)(=O)c1ccc(-c2ccnc3[nH]ccc23)cc1 [GSK977617]
0

Item: O=C(Nc1cccc(-c2nn3ncccc3c2-c2ccnc(Nc3cccc(C(F)(F)F)c3)n2)c1)c1c(F)cccc1F [GSK299495]
0

Item: COc1ccc(COc2cc(-n3cnc4ccccc43)sc2C(N)=O)cc1 [GSK1024304]
0

Item: COc1ccc(Nc2ncc(C#N)c(Nc3ccccc3C(N)=O)n2)cc1N1CCN(C)CC1.Cl [GSK1558669]
0

Item: "COc1cc2c(cc1OC[C@@H](O)CO)ncc1c3ccc(C#N)cc3[nH]c21"
8

Item: "CCc1nc(-c2cccc(C)c2)c(-c2ccnc(NCc3ccccc3)c2)s1"
2

Item: Cc1nnc(-c2ccc3ncc(-c4ccc(S(C)=O)cc4)n3c2)o1 (centres unmarked)
2

Item: COc1ccc(CNC(=O)NC2CCN(c3ccnc(Nc4ccc(OC)cc4)n3)C2)cc1 (centres unmarked) [GSK1379727]
0

Item: O=C(NCCNc1ccnc(Nc2ccc(F)cc2)n1)c1cc2ccccc2s1 [GSK1379874]
0

Item: Cc1c2ccc(N(C)c3ccnc(Nc4cccc(S(N)(=O)=O)c4)n3)cc2nn1Cc1ccccc1.Cl.Cl [GW787226]
10
